Hi there, I'd appreciate the recorded Kd for every entry that follows.
Test target: T1, cynoSIRPα (NP_001271679), Extracellular Domain + His-Tag (cynomolgus monkey)
T1 construct: also called CySIRPα NP_001271679; not shown: His-Tag
T1 chain: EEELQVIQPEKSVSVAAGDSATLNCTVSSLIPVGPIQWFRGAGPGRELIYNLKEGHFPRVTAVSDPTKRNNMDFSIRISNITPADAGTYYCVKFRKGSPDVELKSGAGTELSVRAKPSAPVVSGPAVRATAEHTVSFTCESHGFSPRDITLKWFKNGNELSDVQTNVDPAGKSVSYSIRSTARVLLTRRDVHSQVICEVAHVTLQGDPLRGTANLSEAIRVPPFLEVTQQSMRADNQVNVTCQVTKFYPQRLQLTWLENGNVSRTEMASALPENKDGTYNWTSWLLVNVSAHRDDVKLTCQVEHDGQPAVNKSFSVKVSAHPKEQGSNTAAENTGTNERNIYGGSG
Method: SPR, antibody captured on Protein A/G, ECD-His analyte, 1:1 fit
One number for each entry, in nM.

Some binders with known Kd results, for comparison:
| Binder | Kd, nM |
| --- | --- |
| Antibody E15 (antibody, human IgG1, kappa, L234A L235A, V domains shown) VH: QVQLQESGPGLVRPSETLSLTCTVSGGSIRNYYWSWIRQPPGKGLEWIGFIYYTGRTFYNPSLKSRVTISLDMSINQFSLKMTSVTAADTAVYYCARVRAYSGIGLDGTDVWGQGTTVTVSS VL: DIVMTQSPLSLPVTPGEPASISCKSSQSLLYSNGYAYLDWYLQRPGQSPQLLIYLGSNRASGVPDRFSGSGSGTDFTLKISRVEAEDVGVYYCMQALQTPLTFGGGTKVEIKR | 49.4 |
| Antibody E17 (antibody, human IgG1, kappa, L234A L235A, V domains shown) VH: QVQLQESGPGLVRPSETLSLTCTVSGGSIRNYYWSWIRQPPGKGLEWMGFIYDNGRTFYNPSLKSRVTISLDMSMNQFSLKMTSVTAADTAVYYCARVRAYSGIGLDGTDVWGQGTTVTVSS VL: DIVMTQSPLSLPVTPGEPASISCKSSQSLLYSNAYNYLDWYLQRPGQSPQLLIYLGSNRASGVPDRFSGSGSGTDFTLKISRVEAEDVGVYYCMQALQTPLTFGGGTKVEIKR | 44.8 |
| Antibody E7 (antibody, human IgG1, kappa, L234A L235A, V domains shown) VH: QVQLQESGPGLVRPSETLSLTCTVSGGSIRNYYWSWIRQPPGKGLEWIGFIYYNGRTFYNPSLKSRVTISLDTSKNQFSLKMTSVTAADTAVYYCARVRAYSGIGLDGTDVWGQGTTVTVSS VL: DIVMTQSPLSLPVTPGEPASISCKSSQSLLYSNGYAYLDWYLQRPGQSPQLLIYQGSNRASGVPDRFSGSGSGTDFTLKISRVEAEDVGVFYCMQALQTPLTFGGGTKVEIKR | 21.9 |
| Antibody E13 (antibody, human IgG1, kappa, L234A L235A, V domains shown) VH: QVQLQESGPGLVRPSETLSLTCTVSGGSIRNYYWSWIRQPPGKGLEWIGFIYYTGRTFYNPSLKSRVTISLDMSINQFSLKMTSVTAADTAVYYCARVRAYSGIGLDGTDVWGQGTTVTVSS VL: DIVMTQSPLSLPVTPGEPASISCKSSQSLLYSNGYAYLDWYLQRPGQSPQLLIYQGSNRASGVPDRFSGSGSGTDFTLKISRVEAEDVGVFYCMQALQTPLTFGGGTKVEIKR | 38.3 |
| Antibody E3 (antibody, human IgG1, kappa, L234A L235A, V domains shown) VH: QVQLQESGPGLVRPSETLSLTCTVSGGSIRNYYWSWIRQPPGKGLEWIGFIYYNGRTFYNPSLKSRVTISLDMSKNQFSLKMTSVTAADTAVYYCARVRAYSGIGLDGTDVWGQGTTVTVSS VL: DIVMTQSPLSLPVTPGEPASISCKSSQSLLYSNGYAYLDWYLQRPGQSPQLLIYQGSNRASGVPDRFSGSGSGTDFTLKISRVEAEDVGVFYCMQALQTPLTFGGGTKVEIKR | 17.3 |
| Antibody E12 (antibody, human IgG1, kappa, L234A L235A, V domains shown) VH: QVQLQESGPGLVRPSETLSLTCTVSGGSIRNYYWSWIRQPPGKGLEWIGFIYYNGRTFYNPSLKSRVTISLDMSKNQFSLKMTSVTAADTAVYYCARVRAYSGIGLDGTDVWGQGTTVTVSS VL: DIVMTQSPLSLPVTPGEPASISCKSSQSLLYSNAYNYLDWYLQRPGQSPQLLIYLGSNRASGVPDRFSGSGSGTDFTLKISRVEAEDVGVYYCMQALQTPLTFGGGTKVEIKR | 46.1 |

Now for another entry.
The recorded Kd for entry Antibody E6 (antibody, human IgG1, kappa, L234A L235A, V domains shown) VH: QVQLQESGPGLVRPSETLSLTCTVSGGSIRNYYWSWIRQPPGKGLEWIGFIYYNGRTFYNPSLKSRVTISLDKSKNQFSLKMTSVTAADTAVYYCARVRAYSGIGLDGTDVWGQGTTVTVSS VL: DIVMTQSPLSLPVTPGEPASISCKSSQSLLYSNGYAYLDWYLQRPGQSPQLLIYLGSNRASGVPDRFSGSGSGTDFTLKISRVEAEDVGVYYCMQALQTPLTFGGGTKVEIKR equals 41
